target: Amyloid-beta precursor protein (Homo sapiens); test: Inhibition of self-mediated amyloid beta (1 to 42) (unknown origin) aggregation at 25 uM after 48 hrs by thioflavin T fluorescence assay relative to control
Answer no (0) if inhibition is under 70%, and yes (1) if it is 70% or more.

> print(dat)
                               given.smiles  category.label
1     COc1ccc(CNCCN2CCN(Cc3ccccc3)CC2)cc1OC         yes (1)
2  COc1cc(CNCCCCN2CCN(C(c3ccccc3)c3ccccc3)CC2)cc(OC)c1OC          no (0)
3        c1ccc(CN2CCN(CCCNCc3cccnc3)CC2)cc1          no (0)
4     COc1cc(CNCCCN2CCN(Cc3ccccc3)CC2)ccc1O          no (0)
5     COc1ccc(CNCCN2CCC(Cc3ccccc3)CC2)cc1OC          no (0)

Is inhibition for "c1ccc(CN2CCN(CCNCc3cccnc3)CC2)cc1" at or above 70%? no (0)

Is inhibition for "COc1cc(CNCCN2CCN(Cc3ccccc3)CC2)cc(OC)c1OC" at or above 70%? yes (1)

Is inhibition for "COc1cc(CNCCCCN2CCN(Cc3ccccc3)CC2)cc(OC)c1OC" at or above 70%? yes (1)

Is inhibition for "c1ccc(CC2CCN(CCCNCc3cccnc3)CC2)cc1" at or above 70%? yes (1)

Is inhibition for "COc1ccc(CNCCCN2CCC(Cc3ccccc3)CC2)cc1OC" at or above 70%? yes (1)

Is inhibition for "COc1ccc(CNCCN2CCN(C(c3ccccc3)c3ccccc3)CC2)cc1OC" at or above 70%? no (0)

Is inhibition for "COc1cc(CNCCCCN2CCC(Cc3ccccc3)CC2)cc(OC)c1OC" at or above 70%? yes (1)

Is inhibition for "COc1ccc(CNCCCN2CCN(C(c3ccccc3)c3ccccc3)CC2)cc1OC" at or above 70%? no (0)

Is inhibition for "COc1cc(CNCCCN2CCN(C(c3ccccc3)c3ccccc3)CC2)ccc1O" at or above 70%? no (0)
